As shown below, each of these molecules has a reported %Inh value.
Tested on: SBK1
Details: concentration: 1 μM, replicates: in singlicate; n = 1
Write the value in % as a bare number.

Illustrative cases are given below, each with its answer.
molecule | %Inh (%)
O=C(Nc1cccc(-c2nn3ccccc3c2-c2ccnc(Nc3cccc(C(F)(F)F)c3)n2)c1)c1c(F)cccc1F | 20
COc1ccc(Nc2nccc(N3CCC(NC(=O)Nc4cccc(OC)c4)C3)n2)cc1 (stereo not shown) | 0

Q: Write down the reported %Inh of CSc1cccc2c(-c3ccncn3)c(-c3ccc(F)cc3)nn12 , test system: SBK1.
Result: 2

Q: Write down the reported %Inh of COc1ccc(Nc2nccc(NCCNC(=O)c3cc4ccccc4s3)n2)cc1 , test system: SBK1.
Result: 20

Q: Write down the reported %Inh of CN(C)Cc1ccc(-c2ccc3c(Nc4ccc(Oc5ccccn5)cc4)ccnc3c2)o1 , test system: SBK1.
Result: 8

Q: Write down the reported %Inh of COc1cccc(-c2ccc3c(NC(=O)C4CC4)n[nH]c3n2)c1 , test system: SBK1.
Result: 0

Q: Write down the reported %Inh of COc1cccc(NC(=O)NC2CCN(c3ccnc(Nc4cc(OC)c(OC)c(OC)c4)n3)C2)c1 (stereo not shown) , test system: SBK1.
Result: 15

Q: Write down the reported %Inh of Nc1ncc(-c2ccc3nccc(-c4ccncc4)c3c2)cc1S(=O)(=O)N1CCOCC1 , test system: SBK1.
Result: 3

Q: Write down the reported %Inh of COc1cc(Nc2nccc(N3CCC(NC(=O)Nc4cccc(C(C)=O)c4)C3)n2)cc(OC)c1OC (stereo not shown) , test system: SBK1.
Result: 11

Q: Write down the reported %Inh of CN(c1ccc(NC(=O)Nc2cc(C(F)(F)F)ccc2F)cc1)c1ccnc(Nc2ccc(S(N)(=O)=O)cc2)n1 , test system: SBK1.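 Also: KINOMEscan kinase panel screen.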
Result: 0
